For each record, write down the corresponding phosphorylation enrichment.
target: EPHB2 (UniProt P29323); assay: phosphorylation enrichment, bacterial display (enrichment ratio); higher = better substrate or ligand; peptides without Tyr show the background;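 also: 11-residue human phosphosite peptides and single-mutation variants displayed on the E. coli surface, counted by deep sequencing, each peptide's frequency after selection divided by its frequency in the unselected input library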;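 also: frequency after pTyr selection over input frequency; kinase dosed for 20-30% of maximal phosphorylation in three min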
Sequence (P29323 whole entry, looked up): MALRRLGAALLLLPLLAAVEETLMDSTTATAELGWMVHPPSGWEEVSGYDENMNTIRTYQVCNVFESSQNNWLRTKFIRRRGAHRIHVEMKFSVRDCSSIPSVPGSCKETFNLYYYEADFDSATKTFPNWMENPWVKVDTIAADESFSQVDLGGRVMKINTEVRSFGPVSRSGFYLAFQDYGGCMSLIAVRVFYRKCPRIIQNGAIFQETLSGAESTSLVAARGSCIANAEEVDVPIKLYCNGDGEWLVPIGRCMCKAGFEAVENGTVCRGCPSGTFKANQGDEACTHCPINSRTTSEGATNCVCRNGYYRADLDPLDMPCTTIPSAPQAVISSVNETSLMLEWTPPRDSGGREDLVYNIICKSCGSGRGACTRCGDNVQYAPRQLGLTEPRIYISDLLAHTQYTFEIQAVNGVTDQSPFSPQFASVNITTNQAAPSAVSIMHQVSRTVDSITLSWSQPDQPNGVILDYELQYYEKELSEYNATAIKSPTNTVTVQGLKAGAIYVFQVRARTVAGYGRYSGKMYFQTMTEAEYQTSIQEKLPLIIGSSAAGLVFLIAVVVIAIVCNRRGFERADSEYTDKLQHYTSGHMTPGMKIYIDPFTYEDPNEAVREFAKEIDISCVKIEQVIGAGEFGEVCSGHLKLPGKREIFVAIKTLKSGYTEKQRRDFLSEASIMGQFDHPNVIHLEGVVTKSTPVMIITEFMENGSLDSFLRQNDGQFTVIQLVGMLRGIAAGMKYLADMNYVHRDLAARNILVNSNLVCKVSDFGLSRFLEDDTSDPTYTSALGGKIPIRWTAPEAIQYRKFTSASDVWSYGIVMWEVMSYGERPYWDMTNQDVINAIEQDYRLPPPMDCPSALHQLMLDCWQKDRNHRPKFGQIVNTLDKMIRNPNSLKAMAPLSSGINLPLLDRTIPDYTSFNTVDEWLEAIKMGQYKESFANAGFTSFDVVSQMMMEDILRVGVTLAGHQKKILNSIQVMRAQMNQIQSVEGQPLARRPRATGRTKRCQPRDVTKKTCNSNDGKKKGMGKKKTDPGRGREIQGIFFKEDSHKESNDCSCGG
Answers are plain numbers.

Worked examples, 5 sequences total:
sequence_entry="FSMGCYEISLE [HMGCL_Y198_G203E_YF]" numeric_readout=0.751
sequence_entry="PLDGEYFSLQI [TP53_Y327_T329S]" numeric_readout=1.24
sequence_entry="HAVYVCDICHV [TWNK_Y508_Y508C]" numeric_readout=2.06
sequence_entry="LLIMEYAKYGS [RET_Y806_V804M]" numeric_readout=1.02
sequence_entry="FVSIVYNDSGE [TSC2_Y1650]" numeric_readout=0.702

Please supply phosphorylation enrichment for each of the following items, keeping them in order.
1. LSQAKYQIRFR [CRLF1_Y272_F268S_YF]
2. LSNPAYCLLLA [DDR1_Y513_R514C]
3. FADIAYNFRDG [PAH_Y166_H170D_YF]

*A*
0.286
0.844
0.476

###

molecular target: Jak2 (UniProt O60674); experiment: phosphorylation enrichment, bacterial display (enrichment ratio); higher = better substrate or ligand; peptides without Tyr show the background
Sequence (O60674 whole entry, looked up): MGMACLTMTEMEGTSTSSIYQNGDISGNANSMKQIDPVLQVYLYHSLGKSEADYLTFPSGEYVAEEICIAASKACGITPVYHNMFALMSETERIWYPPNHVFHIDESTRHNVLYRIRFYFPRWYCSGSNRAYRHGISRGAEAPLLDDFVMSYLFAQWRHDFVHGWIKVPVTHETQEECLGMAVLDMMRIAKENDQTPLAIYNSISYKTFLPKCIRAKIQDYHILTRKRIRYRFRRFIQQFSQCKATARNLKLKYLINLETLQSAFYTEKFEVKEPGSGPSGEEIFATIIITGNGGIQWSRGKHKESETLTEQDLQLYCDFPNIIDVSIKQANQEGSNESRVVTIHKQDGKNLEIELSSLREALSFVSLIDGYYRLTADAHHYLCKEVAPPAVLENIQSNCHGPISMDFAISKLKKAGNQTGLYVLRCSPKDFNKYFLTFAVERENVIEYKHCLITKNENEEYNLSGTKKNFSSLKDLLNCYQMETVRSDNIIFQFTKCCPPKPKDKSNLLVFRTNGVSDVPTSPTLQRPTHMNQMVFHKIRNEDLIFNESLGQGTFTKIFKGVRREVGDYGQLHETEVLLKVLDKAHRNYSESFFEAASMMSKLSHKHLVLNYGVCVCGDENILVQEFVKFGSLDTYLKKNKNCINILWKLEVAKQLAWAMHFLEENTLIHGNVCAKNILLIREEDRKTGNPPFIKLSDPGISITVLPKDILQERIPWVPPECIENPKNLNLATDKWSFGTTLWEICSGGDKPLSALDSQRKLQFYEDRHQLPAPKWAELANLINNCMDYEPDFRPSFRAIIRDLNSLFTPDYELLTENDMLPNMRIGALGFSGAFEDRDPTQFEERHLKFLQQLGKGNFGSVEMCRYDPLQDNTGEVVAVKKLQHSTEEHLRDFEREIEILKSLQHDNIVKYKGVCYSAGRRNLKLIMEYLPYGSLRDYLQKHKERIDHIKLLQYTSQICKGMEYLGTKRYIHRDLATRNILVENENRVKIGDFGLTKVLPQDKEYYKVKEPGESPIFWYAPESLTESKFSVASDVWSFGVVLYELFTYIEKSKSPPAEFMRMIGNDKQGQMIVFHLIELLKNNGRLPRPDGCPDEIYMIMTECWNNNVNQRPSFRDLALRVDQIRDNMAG
Output Yes for phosphorylation enrichment not less than 0.8; output No otherwise.

Here are 5 sequences together with their reported answers.
sequence_entry="LRLSSYSTTIR [CYP7B1_Y365]" tested_target="Jak2 (UniProt O60674)" group_label=Yes
sequence_entry="LTMAPYSSVSL [FAM81A_Y24]" tested_target="Jak2 (UniProt O60674)" group_label=No
sequence_entry="VGTKRYVAPEV [ACVRL1_Y375_M376V]" tested_target="Jak2 (UniProt O60674)" group_label=No
sequence_entry="WAMPAYNRSKL [WWOX_Y293_L291P]" tested_target="Jak2 (UniProt O60674)" group_label=No
sequence_entry="SVTCTYSLALN [TP53_Y126_P128L]" tested_target="Jak2 (UniProt O60674)" group_label=Yes

*Q* Quick check, phosphorylation enrichment >= 0.8? GDPTEYYSTAI [IGSF22_Y501]
*A* Yes

*Q* Then what about the sequence SDPIIYTLENI [ADGRE1_Y534] ?
*A* Yes

*Q* Then what about the sequence NIKKEYTKMVQ [PMS2_Y181_A182T] ?
*A* No

*Q* Then what about the sequence PPDGEYFTLQI [TP53_Y327_L323P] ?
*A* Yes

*Q* Then what about the sequence IGNGYYFHVFS [MYBPC3_Y1136_R1138H] ?
*A* Yes

*Q* Then what about the sequence GGDGSYVSVPL [TNNI3K_Y425_S430L] ?
*A* No

*Q* Then what about the sequence CTTIRYNYMCN [TP53_Y234_H233R] ?
*A* No

*Q* Then what about the sequence PLQKTYNYNML [SLC4A1_Y553_V557M] ?
*A* No

*Q* Then what about the sequence SGDINYGQFAQ [PLCG1_Y210_T209N] ?
*A* No

*Q* Then what about the sequence GGSSPYSRRLP [CDK13_Y351] ?
*A* No

*Q* Then what about the sequence RTVPLYESLRK [DDB1_Y718_P721L] ?
*A* No

*Q* Then what about the sequence SEDSEYFRAFE [CASQ2_Y178_K180R_YF] ?
*A* Yes

*Q* Then what about the sequence KRLKDYLTVLQ [USP25_Y425] ?
*A* No

*Q* Then what about the sequence LQKNIYSEELR [LMNA_Y211_F206L] ?
*A* No

*Q* Then what about the sequence RRIHSYRCHLW [VHL_Y112_G114C] ?
*A* No

*Q* Then what about the sequence KVALLYKPYFY [POLE_Y100_P99L] ?
*A* Yes

*Q* Then what about the sequence IMFTSYFLTIL [TAS2R16_Y239_V235M] ?
*A* Yes

*Q* Then what about the sequence SIKDKYVTVLF [KCNH2_Y611_A614V_YF] ?
*A* No
